test system: Streptococcus pyogenes ATCC 19615; type: cell-based; settings: Gram-positive, BHI, 18-24 hrs at 37° C.
EXPERIMENTAL READOUT: MIC SP (µM)
Unit µM implied. Number only.

Short answer for "CC[C@H](C)[C@H](NC(=O)[C@H](CCCNC(=N)N)NC(=O)[C@H](CO)NC(=O)[C@H](CC(C)C)NC(=O)[C@H](Cc1ccccc1)NC(=O)[C@H](Cc1ccccc1)NC(=O)[C@@H](N)Cc1ccccc1)C(=O)N[C@@H](Cc1ccccc1)C(N)=O" : MIC SP was 25

The compound "N=C(N)NCCC[C@H](NC(=O)[C@H](CCCNC(=N)N)NC(=O)[C@H](Cc1ccccc1)NC(=O)[C@H](Cc1ccccc1)NC(=O)[C@H](Cc1ccccc1)NC(=O)[C@@H](N)Cc1ccccc1)C(=O)N[C@@H](Cc1ccccc1)C(=O)N[C@@H](Cc1ccccc1)C(N)=O" showed MIC SP equal to 3

What the record says about "N=C(N)NCCC[C@H](NC(=O)[C@H](CCCNC(=N)N)NC(=O)[C@H](Cc1ccccc1)NC(=O)[C@H](CCc1ccccc1)NC(=O)[C@H](Cc1ccccc1)NC(=O)[C@@H](N)Cc1ccccc1)C(=O)N[C@@H](Cc1ccccc1)C(=O)N[C@@H](Cc1ccccc1)C(N)=O" : MIC SP is 6.25

Per the records, this compound ( "CC[C@H](C)[C@H](NC(=O)[C@H](CCCNC(=N)N)NC(=O)[C@H](CCCNC(=N)N)NC(=O)[C@H](CC(C)C)NC(=O)[C@H](CCc1ccccc1)NC(=O)[C@H](Cc1ccccc1)NC(=O)[C@@H](N)Cc1ccccc1)C(=O)N[C@@H](Cc1ccccc1)C(N)=O" ) has MIC SP equal to 12.5

The compound "N=C(N)NCCC[C@H](NC(=O)[C@H](CCCNC(=N)N)NC(=O)[C@H](Cc1ccccc1)NC(=O)[C@H](CCCNC(=N)N)NC(=O)[C@H](Cc1ccccc1)NC(=O)[C@@H](N)Cc1ccccc1)C(=O)N[C@@H](Cc1ccccc1)C(=O)N[C@@H](Cc1ccccc1)C(N)=O" showed MIC SP equal to 6.25

====

assay: Cytotoxicity assay: hemolysis of erythrocytes; assay type: cell-based; details: 50% hemolysis, human erythrocytes, 1 h at 37° C., pH 7.4; read-out: LC50 Erythrocytes Human
Square brackets hold non-standard residues; d marks the D form. Peptide text beside a SMILES is read from it. hPhe = N[C@@H](CCc1ccccc1)C(=O)O
EXPERIMENTAL READOUT: CC50 at 1 h (µM)
Entry rule: numbers only, all in µM.

# CC50 at 1 h (compound: N=C(N)NCCC[C@H](NC(=O)[C@H](CCCNC(=N)N)NC(=O)[C@H](Cc1ccccc1)NC(=O)[C@H](Cc1ccccc1)NC(=O)[C@H](CCc1ccccc1)NC(=O)[C@@H](N)Cc1ccccc1)C(=O)N[C@@H](Cc1ccccc1)C(=O)N[C@@H](Cc1ccccc1)C(N)=O [compound 51] (H-F[hPhe]FFRRFF-NH2; N-terminus assumed) ) is 159

====

Test system: Streptococcus pyogenes ATCC 19615
Format: cell-based
Details: Gram-positive, BHI, 18-24 hrs at 37° C.
Source text: The following strains were used: • Gram-negative bacteria: Escherichia coli ATCC 25922, Pseudomonas aeruginosa ATCC 27853, Acinetobacter baumannii ATCC 19606, Klebsiella pneumoniae ATCC 13883, • Gram-positive bacteria: Staphylococcus aureus ATCC 25923, multi-drug resistant Staphylococcus aureus ATCC BAA-44, Streptococcus pyogenes ATCC 19615, Listeria ivanovii Li4pVS2, Enterococcus faecalis ATCC 29212, […]
Ends that are not written are not given here.
EXPERIMENTAL READOUT: MIC SP (µM)
Return type: number; implicit unit µM.

// MIC SP value for FFRRFFFF-NH2 [compound 41] : 6.25

// MIC SP value for FRFRFRFR-NH2 [compound 56] : 6.25

The substance RFFFRRFF-NH2 [compound 72] showed MIC SP equal to 25

What the record says about FFFRRRFF-NH2 [compound 38] : MIC SP is 12.5

Lab book: MIC SP of FFFFRKFF-NH2 [compound 43] noted as 12.5

Kindly note the recorded MIC SP for FFFFSRFF-NH2 [compound 34] , which is 6.25

What the record says about FRFRFRFF-NH2 [compound 55] : MIC SP is 12.5

For reference, reported MIC SP for FFFFKRFF-NH2 [compound 42] stands at 12.5

// MIC SP value for FRFFRRFF-NH2 [compound 49] : 25
